assay_method_text: gradient 5% acetonitrile 3 min, to 50% in 2 min, to 85% in 15 min, held 3 min, 100 µL/min
cond: column: Zorbax Extend-C18 2.1 x 50 mm; eluents: water / acetonitrile, 0.1% formic acid
attribute_measured: RP-LC retention time (s)

molecule: COc1ccc(CNC(=O)Nc2ccccc2NC(=O)c2cccc(Cl)c2)cc1OC
measured_value: 808
//
molecule: CCCC(=O)N1CCN(c2nc(CN3CCOCC3)cs2)CC1
measured_value: 580
//
molecule: CCCNc1cc(N2CCC(CCC(=O)N3CCN(c4ccccc4)CC3)CC2)ncn1
measured_value: 603
//
molecule: CCCCN(C)C(=O)c1c(C)oc2ccn(Cc3ccc(F)cc3)c(=O)c12
measured_value: 868
//
molecule: CSc1ccc(CNC(=O)CN2CCc3[nH]c4c(C)cc(F)cc4c(=O)c3C2)cc1
measured_value: 638
//
molecule: Cc1ccc(S(=O)(=O)N2CCC(n3cnnc3C)CC2)cc1Cl
measured_value: 736
//
molecule: Cc1ccc(CNC(=O)Cn2c(=O)c(=O)n(C)c3ncccc32)o1
measured_value: 656
//
molecule: COc1ccc(CNC(=O)C2CCCN(c3nnc4ccc(C(F)(F)F)cn34)C2)cc1 (stereo not given)
measured_value: 783
//
molecule: C=C1C(=O)O[C@@H]2[C@H]3O[C@]3(C)CC/C=C(/C)CC[C@@H]12
measured_value: 972
//
molecule: CC(C)CCNC(=O)N1CCC2(CC1)C(=O)N(C)c1ccccc12
measured_value: 813
//
molecule: Cc1ccc(-n2nc(N3CCCC(C(=O)NCc4ccc5c(c4)OCO5)C3)ccc2=O)cc1Cl (stereo not given)
measured_value: 875
//
molecule: CCOCCCNC(=O)c1c(N2CCCC2=O)c2cc(C)ccc2n1C
measured_value: 782
//
molecule: CC1CCN(S(=O)(=O)c2ccc(Cl)c(-c3nnc(-c4ccccc4)o3)c2)CC1
measured_value: 1250
//
molecule: Cc1[nH]c(C(=O)N2CCC(CC(=O)NCc3ccc(F)cc3)CC2)c(C)c1C(=O)OC(C)C
measured_value: 818
//
molecule: CCOc1ccc(-c2nnc(SCC(N)=O)o2)cc1
measured_value: 682
//
molecule: Cc1ccc(-c2nc(-c3ccc4c(c3)oc(=O)n4C)no2)cc1F
measured_value: 609
//
molecule: Cn1ncc2c3ccccc3n(CC(=O)NCCCN3CCOCC3)c2c1=O
measured_value: 582
//
molecule: CC(C)c1cc(C(=O)Nc2cccc(Cl)c2)nc2ccnn12
measured_value: 1230
//
molecule: O=C(C1CCN(c2nc3ccc(-c4cncnc4)nc3s2)CC1)N1CCCCC1
measured_value: 787
//
molecule: C=CCn1c(C)c(CC(=O)NCCOC)c(=O)n2nc(-c3ccccc3)nc12
measured_value: 673

---

assay_method_text: gradient 5% acetonitrile 3 min, to 50% in 2 min, to 85% in 15 min, held 3 min, 100 µL/min
cond: column: Zorbax Extend-C18 2.1 x 50 mm; eluents: water / acetonitrile, 0.1% formic acid
I would appreciate it if you labelled entries T when RP-LC retention time is 700 s or higher, otherwise F.

compound: Cc1ccc(CNC(=O)Cc2nnc(-c3ccc4ncccc4c3)o2)cc1C
label_value: T
//
compound: CCN(CC)c1ncnc2c(-c3ccccc3)cn(CC(=O)N3CCCC3)c12
label_value: F
//
compound: Cc1csc(-c2cc(S(=O)(=O)NCCCN3CCC(C)CC3)c(C)s2)n1
label_value: F
//
compound: Fc1ccc(Cc2nc3nccc(-c4cc5ccccc5o4)n3n2)cc1
label_value: T
//
compound: C[C@H](C(=O)O)c1cccc(C(=O)c2ccccc2)c1
label_value: T
//
compound: COC[C@@H]1CN(S(=O)(=O)c2ccccc2)C[C@H]1c1nc(C)no1
label_value: T
//
compound: O=C(CN1CCN(Cc2ccc(F)cc2Cl)C1=O)N1CCN(c2ccccc2)CC1
label_value: T
//
compound: COc1ccc(-c2nc(-c3ccc4ncn(C(C)C)c4c3)no2)cc1OC
label_value: T
//
compound: O=C(Nc1c(F)cccc1F)N1CCc2[nH]cnc2C1c1ccccc1 (stereo not given)
label_value: F
//
compound: O=C(NCc1cccc(F)c1)c1ccc2c(c1)Sc1ncccc1C(=O)N2C1CC1
label_value: T
//
compound: O=C(CCCCCCC(=O)Nc1ccc(F)cc1)NO
label_value: F
//
compound: COc1ccc(NC(=O)C2CC(=O)N(CCc3c[nH]c4ccc(F)cc34)C2)cc1 (stereo not given)
label_value: T
//
compound: CC(C)n1c(=O)c2ccccc2n(Cc2nc(-c3ccccc3Cl)no2)c1=O
label_value: T
//
compound: CC(C)NC(=O)N1CCCC(c2cccc(C(=O)NCc3ccc(Cl)cc3)c2)C1 (stereo not given)
label_value: T
//
compound: CCOc1ncccc1CNC(=O)c1sccc1C
label_value: T
//
compound: O=C(CC1CCN(C(=O)c2ccccc2)CC1)N1CCN(c2ccccn2)CC1
label_value: F
//
compound: O=C(NCc1cccc2ccccc12)NCC1CCN(C(=O)Oc2ccccc2)CC1
label_value: T
//
compound: COCCNc1c(-c2cccc(F)c2)nc2sc(C(=O)N3CCCC3)c(C)n12
label_value: T
